Tested on: J774
Test: Cytotoxicity against mouse J774 cells assessed as reduction in cell viability at 10 ug/ml after 24 hrs by resazurin-based colorimetric assay
Conditions: j774, 24 h
Label 1.0 when Activity < 7%; otherwise 0.0.

Use these answered entries as a reference point.
1) CC1CS(=O)(=O)CCN1/N=C/c1ccc([N+](=O)[O-])o1 (stereo not drawn)    1.0
2) O=C1CN(CCc2ccccc2CCl)c2ccc([N+](=O)[O-])cc2N1    0.0
3) CN1C(=O)CN(CCc2ccccc2CCl)c2ccc([N+](=O)[O-])cc21    1.0

# TODO verify Activity < 7% strictly for this compound: `O=C1CN(CCCCCl)c2ccc([N+](=O)[O-])cc2N1`
0.0

Determine if `O=C1CN(CCCCCCl)c2ccc([N+](=O)[O-])cc2N1` shows Activity strictly lower than 7%.
0.0

Does the reported Activity of the following compound sit strictly below 7%? `CN1C(=O)CN(CCCCCCCl)c2ccc([N+](=O)[O-])cc21`
0.0

Consider `CCOCc1ccccc1CCN1CC(=O)Nc2cc([N+](=O)[O-])ccc21` . Does its Activity lie strictly below 7%?
0.0

is_below(Activity, 7%) for `CN1C(=O)CN(CCCCCl)c2ccc([N+](=O)[O-])cc21` ?
1.0

###

Tested on: J774
Assay: Cytotoxicity against mouse J774 cells assessed as reduction in cell viability at 100 ug/ml after 24 hrs by resazurin-based colorimetric assay
Conditions: j774, 24 h
// assign Yes if Activity falls strictly below 80%, else No (ties count as No)

1) CCOCc1ccccc1CCN1CC(=O)Nc2cc([N+](=O)[O-])ccc21    No
2) CN1C(=O)CN(CCCCCl)c2ccc([N+](=O)[O-])cc21    No

Strictly below 80% in Activity? `O=C1CN(CCc2ccccc2CCl)c2ccc([N+](=O)[O-])cc2N1`
Yes

###

System: Trypanosoma cruzi
Assay: Antitrypanosomal activity against epimastigote forms of Trypanosoma cruzi CL-B5 transfected with Escherichia coli LacZ gene at 100 ug/ml after 72 hrs by chlorophenol red-Beta-D-galactopyranoside-based assay
Assay type: functional
# label = true if Activity >= 70% else false

Use the examples below as a reference point.
1. CN1C(=O)CN(CCCCCl)c2ccc([N+](=O)[O-])cc21    true
2. O=C1CN(CCc2ccccc2CCl)c2ccc([N+](=O)[O-])cc2N1    true
3. CCOCc1ccccc1CCN1CC(=O)Nc2cc([N+](=O)[O-])ccc21    true
4. CN1C(=O)CN(CCc2ccccc2CCl)c2ccc([N+](=O)[O-])cc21    true
5. CN1C(=O)CN(CCCCCCCl)c2ccc([N+](=O)[O-])cc21    true

Determine whether measured Activity meets or exceeds 70% for `CN1CC(=O)Nc2cc([N+](=O)[O-])ccc21`
false

Threshold query (Activity >= 70%) on CC1CS(=O)(=O)CCN1/N=C/c1ccc([N+](=O)[O-])o1 (stereo not given)
true

hey, is Activity for this one >= 70%? `O=C1C[N+]2(CCCCC2)c2ccc([N+](=O)[O-])cc2N1.[Cl-]`
false

Say whether `O=C1CN(CCCCCCl)c2ccc([N+](=O)[O-])cc2N1` shows Activity of 70% or more.
false

###

Tested on: J774
Assay: Cytotoxicity against mouse J774 cells assessed as reduction in cell viability at 100 ug/ml after 24 hrs by resazurin-based colorimetric assay
Settings: j774, 24 h
The compounds listed here are annotated with their Activity.

1) CC1CS(=O)(=O)CCN1/N=C/c1ccc([N+](=O)[O-])o1 (stereo not given)    25.9%

Find Activity (J774) for the entry `CN1C(=O)CN(CCCCCCCl)c2ccc([N+](=O)[O-])cc21`
80.7%
